Reported Average EC50, pSTAT5 Assay in mouse splenocytes by item:
ASSAYED_TARGET: T1, IL-2 receptor βγ complex on C57BL/6 mouse splenocytes (mouse, UniProt P16297 27-539; P34902 23-369)
T1 sequence (looked up) 1: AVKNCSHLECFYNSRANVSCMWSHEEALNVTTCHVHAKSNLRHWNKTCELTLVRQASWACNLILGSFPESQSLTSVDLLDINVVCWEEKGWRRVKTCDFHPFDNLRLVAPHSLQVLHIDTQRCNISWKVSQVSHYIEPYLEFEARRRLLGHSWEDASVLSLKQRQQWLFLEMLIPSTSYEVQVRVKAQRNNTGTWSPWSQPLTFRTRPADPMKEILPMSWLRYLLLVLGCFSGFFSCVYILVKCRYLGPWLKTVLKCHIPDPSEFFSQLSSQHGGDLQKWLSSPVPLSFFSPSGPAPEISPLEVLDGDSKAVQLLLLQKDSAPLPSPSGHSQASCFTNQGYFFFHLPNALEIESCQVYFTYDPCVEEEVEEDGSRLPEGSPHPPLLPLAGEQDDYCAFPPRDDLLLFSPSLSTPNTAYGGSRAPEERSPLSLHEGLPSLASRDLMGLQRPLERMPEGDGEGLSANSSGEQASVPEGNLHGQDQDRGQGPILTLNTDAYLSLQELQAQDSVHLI
T1 sequence (looked up) 2: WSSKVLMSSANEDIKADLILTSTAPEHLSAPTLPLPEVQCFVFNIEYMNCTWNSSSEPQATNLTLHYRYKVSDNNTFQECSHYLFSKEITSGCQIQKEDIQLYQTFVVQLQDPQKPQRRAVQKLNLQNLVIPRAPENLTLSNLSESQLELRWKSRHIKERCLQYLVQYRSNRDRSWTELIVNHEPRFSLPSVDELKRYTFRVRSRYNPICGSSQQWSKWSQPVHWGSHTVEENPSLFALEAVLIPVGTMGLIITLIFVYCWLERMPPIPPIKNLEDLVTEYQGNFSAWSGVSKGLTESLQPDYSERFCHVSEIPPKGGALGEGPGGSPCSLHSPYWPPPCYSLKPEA
EXPERIMENT: cell-based or functional assay
Primed or numbered codes have the meaning given here. [ ]: non-standard residue; d: D form. Ygp = O-(8x polyethylene glycol-amino)-tyrosine (Tyr, amino-capped PEG8); Yn3 = O-(9x polyethylene glycol-azido)-tyrosine (Tyr, azide-capped PEG9); Ygp″ = O-(8x polyethylene glycol-amino)-tyrosine; Yn3″ = O-(9x polyethylene glycol-azido)-tyrosine; hSer = N[C@@H](CCO)C(=O)O; Nle = CCCC[C@H](N)C(=O)O
Don't forget the unit after the number, please.

The examples below pair each entry with its known result.
CMP-136, MMP2 cleaved molecule (ligand, ends and bridges not checked; also: cleaved by MMP2, cleavage product not defined, N-terminal PEG9 link and Glu29 side-chain attachment of the cleavable peptide not defined) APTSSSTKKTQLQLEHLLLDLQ[Nle]ILNGIENYKNPKLTR[Nle]L[hSer][Yn3]KF[Ygp][Nle]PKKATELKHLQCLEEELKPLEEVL[hSer]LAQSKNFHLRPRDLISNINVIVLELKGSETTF[hSer]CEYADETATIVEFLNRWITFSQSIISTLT ... 84.7 nM
CMP-151, MMP2 cleaved molecule (ligand, not fully specified; also: cleaved by MMP2, cleavage product not defined, N-terminal glutaryl-PEG9 link and Lys23 side-chain attachment not defined) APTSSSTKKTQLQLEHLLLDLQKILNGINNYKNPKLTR[Nle]L[hSer][Yn3″]KF[Ygp″][Nle]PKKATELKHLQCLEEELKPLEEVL[hSer]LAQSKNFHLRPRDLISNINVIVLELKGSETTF[hSer]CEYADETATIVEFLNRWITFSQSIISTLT ... 89.2 nM

Fill in: Average EC50, pSTAT5 Assay in mouse splenocytes of CMP-138, MMP2 cleaved molecule (ligand, ends and bridges not checked; also: cleaved by MMP2, cleavage product not defined, N-terminal PEG4 link and Glu29 side-chain attachment of the cleavable peptide not defined) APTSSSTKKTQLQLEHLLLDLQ[Nle]ILNGIENYKNPKLTR[Nle]L[hSer][Yn3]KF[Ygp][Nle]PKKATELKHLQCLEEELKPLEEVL[hSer]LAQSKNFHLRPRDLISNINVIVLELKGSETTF[hSer]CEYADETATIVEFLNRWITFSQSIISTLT is ___
75.1 nM
